Data provenance: patent US20250195475A1

Below is a list of entries, each paired with its recorded pIC50 value.
target_of_assay: CDK2/CyclinE1 (Homo sapiens (Human), UniProt P24941)
method_description: CDK2 kinase assay (TR-FRET)
measurement_context: CDK2/CyclinE1 0.5 nM, ATP 50 μM
Procedure: The purpose of these assays is to evaluate the inhibition of small molecule inhibitors by using TR-FRET assay. Compound Preparation. Dissslove the compounds into DMSO solution to make 10 mM DMSO stock. […] Inhibition rate (IR) of the tested compounds was determined by the following formula: IR (%)=(average High control−compound well)/(average High control−average Low control)*100%. […]
pIC50 (log units): -log10 of the concentration in mol/L.

The cases that follow already have their pIC50 on record.
{"molecule": "CC(C)NC(=O)O[C@@H]1CO[C@H](c2cc(NC(=O)c3ccnn3CC(F)F)n[nH]2)C1 [Compound 93]", "readout_label": "pIC50", "measured_value": 8.28}
{"molecule": "CC(C)NC(=O)O[C@@H]1CC[C@H](c2cc(NC(=O)C3CN(S(=O)(=O)C4CC4)CC3C)n[nH]2)C1 (stereo partly drawn) [Compound 172]", "readout_label": "pIC50", "measured_value": 8.92}

# context switch: different molecule, same pIC50
Task: Hello, I am looking for reported pIC50 with CDK2/CyclinE1 (Homo sapiens (Human), UniProt P24941) for CC(C)NC(=O)O[C@@H]1CC[C@H](c2cc(NC(=O)C34CC(C#N)(C3)C4)n[nH]2)C1 [Compound 109] . Could you help?
Output: 9.05

* * *

target_of_assay: CDK2/CyclinE1 (Homo sapiens (Human), UniProt P24941)
method_description: CDK2 kinase assay (TR-FRET)
measurement_context: CDK2/CyclinE1 0.5 nM, ATP 50 μM
pIC50: −log10 of the molar value.
Met means recorded pIC50 is 8 or above; Not met means it is below 8.

For orientation, consider the following solved cases.
{"compound": "CC[C@H](C)NC(=O)O[C@@H]1CC[C@H](c2cc(NC(=O)[C@@H]3CCN(S(C)(=O)=O)C3)n[nH]2)C1", "group_label": "Met"}
{"compound": "CC[C@H](C)NC(=O)O[C@@H]1CO[C@H](c2cc(NC(=O)c3ccnn3C)n[nH]2)C1", "group_label": "Met"}
{"compound": "C#C[C@H]1C[C@@H]1C(=O)Nc1cc([C@H]2C[C@@H](OC(=O)NC(C)C)CO2)[nH]n1", "group_label": "Met"}
{"compound": "CC(C)NC(=O)O[C@@H]1CC[C@H](c2cc(NC(=O)C3CC3c3cnnn3C)n[nH]2)C1 (single isomer, unassigned) [Compound 153]", "group_label": "Met"}
{"compound": "CC(C)NC(=O)O[C@@H]1CC[C@H](c2cc(NC(=O)C34CC(C(F)F)(C3)C4)n[nH]2)C1", "group_label": "Met"}
{"compound": "C#C[C@H]1C[C@@H]1C(=O)Nc1cc([C@@H]2CC[C@H](OC(=O)NC(C)C)C2)[nH]n1", "group_label": "Met"}

Task: Given `COC[C@@H]1CCN(C(=O)Nc2cc([C@H]3CC[C@@H](OC(=O)NC(C)C)C3)[nH]n2)C1` , state whether its pIC50 is at least 8.
Output: Not met

Task: Is the recorded value of pIC50 equal to or greater than 8 for this compound? `COCc1cc(C(=O)Nc2n[nH]c([C@H]3CC[C@@H](OC(=O)NC(C)C)C3)c2F)n(C)n1`
Output: Not met

Task: Hello, I need to know if CC(C)NC(=O)OC1COC(c2cc(NC(=O)c3ccccc3)n[nH]2)C1 (stereo not drawn) [Compound 67] has measured pIC50 not below 8. Thanks!
Output: Not met

Task: Decide: is the reported value of pIC50 for `CC[C@H](C)NC(=O)O[C@@H]1CC[C@H](c2cc(NC(=O)[C@H]3C[C@@H]3COC)n[nH]2)C1` equal to or greater than 8?
Output: Met

Task: Confirm if pIC50 reported for the compound `CC(C)NC(=O)O[C@@H]1CC[C@H](c2cc(NC(=O)[C@H]3CCCN(S(C)(=O)=O)C3)n[nH]2)C1` is 8 or above.
Output: Not met

* * *

# Lookup of reported pIC50 keyed by entry
target_of_assay: CDK2/CyclinE1 (Homo sapiens (Human), UniProt P24941)
method_description: CDK2 kinase assay (TR-FRET)
measurement_context: CDK2/CyclinE1 0.5 nM, ATP 50 μM
Units for pIC50: none; it is -log10 of a concentration expressed in mol/L.

{"compound": "C#C[C@H]1C[C@@H]1C(=O)Nc1cc([C@H]2CC[C@@H](OC(=O)NC3(C)CC3)C2)[nH]n1", "pIC50": 9.30}
{"compound": "Cn1nccc1C(=O)Nc1cc([C@H]2C[C@@H](OC(=O)NC34CC(C3)C4)CO2)[nH]n1", "pIC50": 9.10}
{"compound": "CC(C)NC(=O)O[C@@H]1CC[C@H](c2cc(NC(=O)[C@H]3CCN(CC(F)F)C3)n[nH]2)C1", "pIC50": 8.24}
{"compound": "CC(C)(C)NC(=O)O[C@@H]1CC[C@H](c2cc(NC(=O)C3CC3C#N)n[nH]2)C1 (single isomer, unassigned) [Compound 188]", "pIC50": 9.22}

Task: Which pIC50 value is on record for `CC#C[C@H]1C[C@@H]1C(=O)Nc1cc([C@H]2CC[C@@H](OC(=O)NC(C)C)C2)[nH]n1` ?
Output: 9.00

Task: Please look up its pIC50: CC(C)NC(=O)O[C@@H]1CC[C@H](c2cc(NC(=O)[C@H]3CCN(C(=O)C(C)C)C3)n[nH]2)C1 [Compound 14]
Output: 8.77

Task: Need pIC50 of `C#CC1(NC(=O)O[C@@H]2CO[C@H](c3cc(NC(=O)c4ccnn4C)n[nH]3)C2)CCC1` , thanks.
Output: 8.17

* * *

target_of_assay: CDK2/CyclinE1 (Homo sapiens (Human), UniProt P24941)
method_description: CDK2 kinase assay (TR-FRET)
measurement_context: CDK2/CyclinE1 0.5 nM, ATP 50 μM
Measured IC50 of individual entries
The reply should contain only the number, in nM.

Record excerpt, results attached:
{"compound": "CC(C)NC(=O)O[C@@H]1CO[C@H](c2cc(NC(=O)[C@@H]3CCN(S(=O)(=O)C4CC4)C3)n[nH]2)C1 [Compound 132]", "readout_label": "IC50", "result_unit": "nM", "measured_value": 7.2}
{"compound": "Cn1nccc1C(=O)Nc1cc([C@H]2CC[C@@H](OC(=O)NC34CCC(CC3)OC4)C2)[nH]n1 [Compound 42]", "readout_label": "IC50", "result_unit": "nM", "measured_value": 4.4}
{"compound": "CC(C)NC(=O)O[C@H]1CC[C@@H](c2cc(NC(=O)C3CC3C#N)n[nH]2)C1 (single isomer, unassigned) [Compound 192]", "readout_label": "IC50", "result_unit": "nM", "measured_value": 2}

Task: # get_value(readout='IC50', item= C#C[C@H]1C[C@@H]1C(=O)Nc1cc([C@H]2C[C@@H](OC(=O)N[C@@H](C)CC)CO2)[nH]n1 [Compound 155] )
Output: 4.5

* * *

target_of_assay: CDK2/CyclinE1 (Homo sapiens (Human), UniProt P24941)
method_description: CDK2 kinase assay (TR-FRET)
measurement_context: CDK2/CyclinE1 0.5 nM, ATP 50 μM
Method: The purpose of these assays is to evaluate the inhibition of small molecule inhibitors by using TR-FRET assay. Compound Preparation. Dissslove the compounds into DMSO solution to make 10 mM DMSO stock. […] Inhibition rate (IR) of the tested compounds was determined by the following formula: IR (%)=(average High control−compound well)/(average High control−average Low control)*100%. […]
pIC50: −log10 of the molar value.
# cutoff 8 applies to pIC50; >= gives T, < gives F

Known results for compounds:
{"smiles_entry": "Cn1nccc1C(=O)Nc1cc([C@@H]2C[C@H](OC(=O)NC34CC(F)(C3)C4)CO2)[nH]n1", "group_label": "T"}
{"smiles_entry": "COC1CN(CC(=O)Nc2cc([C@H]3CC[C@@H](OC(=O)NC(C)C)C3)[nH]n2)C1", "group_label": "F"}
{"smiles_entry": "CC(C)NC(=O)O[C@H]1CO[C@@H](c2cc(NC(=O)c3ccnn3CC(F)F)n[nH]2)C1", "group_label": "T"}
{"smiles_entry": "CC(C)NC(=O)O[C@@H]1CC[C@H](c2cc(NC(=O)C3CCCC3)n[nH]2)C1", "group_label": "T"}
{"smiles_entry": "CC(C)(C)NC(=O)O[C@@H]1CC[C@H](c2cc(NC(=O)[C@@H]3CCN(S(C)(=O)=O)C3)n[nH]2)C1", "group_label": "T"}

We now examine a further compound.
Task: Has `O=C(NC12CC(F)(C1)C2)O[C@@H]1CC[C@H](c2cc(NC(=O)[C@@H]3CCN(S(=O)(=O)C4CC4)C3)n[nH]2)C1` a recorded pIC50 greater than or equal to 8?
Output: T
